- Tested on: M14 melanoma
- assay text: NCI tumour cell line growth inhibition, 48 h
parameter: TGI (µM)

O=C1c2ccccc2N=C(c2cc3c(cc2Cl)Sc2nccn2S3(=O)=O)OS(=O)(=O)N1c1ccccc1
47.5
CC/C=C\C[C@H]1C/C=C2/C(=O)C=C[C@H]2C/C=C\CCCC(=O)O1
8.34
COc1ccc2[nH]c(Cl)c(/C=C3/C(=O)Nc4ccccc43)c2c1
1.23
Cc1ccc2nc(NC(=O)C(=O)C(C(=O)c3ccc4ccccc4c3)C3OC(=O)c4ccccc43)sc2c1 (stereo not given)
28.2
CC(=N/NC(=S)N1CCCCCC1)/C(C)=N\NC(=S)N1CCCCCC1
57.9

* * *

- System: HL-60(TB) leukemia
- assay text: NCI tumour cell line growth inhibition, 48 h; in the data active means GI50 below about 0.43 µM; inactive means the rest
Outcomes: active, inactive

Nc1nc(N)c2c(n1)NC(c1sc(Cl)nc1Cl)CC(c1ccccc1)=N2 (centres undefined)
inactive
C[C@@H]1CC[C@H]2[C@@H](C)C(O)O[C@@H]3O[C@]4(C)CC[C@@H]1[C@]32OO4 (some centres undefined)
active
Cc1nnc(C[C@@H]2C=C(c3ccc(Cl)cc3)c3ccccc3-n3c(C)nnc32)o1
active
Clc1ccc(-c2cc(-c3ccccc3)nc(N3CCN(CCCNc4ccnc5cc(Cl)ccc45)CC3)n2)cc1
inactive
Cc1cc2c(cc1Cl)SC(N(c1ccccc1Cl)S(=O)(=O)c1ccc(Br)s1)=NS2(=O)=O
inactive
Cc1c2cnccc2c(C)c2c1c1cc(O)ccc1n2C(C)C
active
COc1ccc(-n2cc(-c3cc(OC)c(OC)c(OC)c3)nc2SCc2ccc(Cl)cc2)cc1OC
inactive
CCN(CC)CCNc1c2ccccc2nc2cccc([N+](=O)[O-])c12
active
C[C@@H](O)[C@@H](C)Oc1nc(Nc2ccc(S(=N)(=O)C3CC3)cc2)ncc1C(F)(F)F (some centres undefined)
active

* * *

- Test system: NCI-H226 lung
- assay text: NCI tumour cell line growth inhibition, 48 h
Each entry below carries its reported TGI.
parameter: TGI (µM)

c1ccc(-c2cnc(SC(c3ccccc3)c3ccccc3)[nH]2)cc1
67.3
CC(=O)c1ccc(N2C(=O)C3c4[nH]c5ccccc5c4C4CCC(C(C)(C)C)CC4C3C2=O)cc1 (stereo not given)
47.6
CC/C=C\C[C@H]1C/C=C2/C(=O)C=C[C@H]2C/C=C\CCCC(=O)O1
10.8

* * *

- System: SK-MEL-5 melanoma
- assay text: NCI tumour cell line growth inhibition, 48 h
parameter: TGI

CN1CCN(CCCOc2cccc3nc(Nc4cc(Cl)cc(Cl)c4)ccc23)CC1
3.75 µM
CCCCC(C(=O)C(=O)Nc1ccc(C)cc1C)C(=O)C(C)C (configuration not stated)
> 100 µM
O=[N+]([O-])c1cc(C2(N3CCCCC3)CCCCC2)sc1Br
18.7 µM
Nc1nc(Cl)cc(NCC2(CO)CCCCC2)n1
> 100 µM
CC(Oc1cc2oc(=O)cc(-c3ccccc3)c2cc1Cl)C(=O)O (configuration not stated)
> 100 µM
Cc1nc2cn3c(c2c(=O)[nH]1)CCCCC3
> 100 µM
CCCCCCCCCCC(=O)CCCCCCC(=O)O
29.3 µM
NC(N)=NN=c1c(=O)c2ccccc2c1=O
11.7 µM
O=C(O)C1C2C=CC(O2)C1C(=O)NCc1cccnc1 (configuration not stated)
> 100 µM
O=C(O)c1cc(N=Nc2ccc([N+](=O)[O-])cc2)ccc1O
> 100 µM
Cc1cc(=O)oc2c(C3=NN(C=O)C(c4ccccc4)C3)c(O)ccc12 (configuration not stated)
> 100 µM
C/C=C1\CC(C(=O)OCC)CCCCCCC1=O (configuration not stated)
> 100 µM

* * *

- System: MDA-MB-231 breast
- assay text: NCI tumour cell line growth inhibition, 48 h; in the data active means GI50 below about 0.43 µM; inactive means the rest
Outcomes: active, inactive

COc1ccc(C(=O)/C=C/c2sc(Cl)nc2Cl)cc1
inactive
C[C@@H](O)[C@@H](C)Oc1nc(Nc2ccc(S(=N)(=O)C3CC3)cc2)ncc1C(F)(F)F (stereo not given in full)
active
Cc1nc2ccccn2c1NC(=O)NN1C(=O)CSC1c1ccc(Cl)cc1 (stereo not given)
inactive
COc1ccc2[nH]c(Cl)c(/C=C3/C(=O)Nc4ccccc43)c2c1
active
CCn1cnc(C[C@H](NC(=O)[C@H](CCCCNC(=O)Nc2cc(C(F)(F)F)cc(C(F)(F)F)c2)NC(=O)Nc2cc(C(F)(F)F)cc(C(F)(F)F)c2)C(=O)OC)c1
inactive
Oc1ccc(NC(=S)Nc2ccccc2)cc1
inactive
CC1(C)OB(c2ccc(N(CCOS(C)(=O)=O)CCOS(C)(=O)=O)cc2)OC1(C)C
inactive
CC(C)C[C@H](CC(=O)O)C(=O)N[C@@H](Cc1c[nH]c2ccccc12)C(=O)N[C@@H](C)c1ccccc1
inactive
CN(C)c1ccc(C(=S)c2ccc(N(C)C)cc2)cc1
inactive
OCC#CCOCC#Cc1ccccc1C#CCOCC#CCO
inactive

* * *

- Tested on: SW-620 colon
- assay text: NCI tumour cell line growth inhibition, 48 h
parameter: TGI

Cc1cc(OCc2nc(N)nc(N)c2-c2ccc(Cl)c(Cl)c2)ccc1[N+](=O)[O-]
> 63.6 µM
CNC(=O)c1cc(Oc2ccc3nc(NC(=O)Nc4ccc(CN5CCOCC5)c(C(F)(F)F)c4)sc3c2)ccn1
10 µM
CN(C)c1ccc(/C=C/C(=O)c2ccc(Nc3nc(Nc4ccc(F)cc4)nc(Nc4ccc(F)cc4)n3)cc2)cc1
46 µM
CC(=O)C(N1CCCCC1)C(O)(C(F)(F)F)C(F)(F)F (centres undefined)
> 100 µM
CC(C)N(C(=O)C12C3C4C1C1C2C3C41C(=O)C(C)(C)C)C(C)C (centres undefined)
> 100 µM
Cc1nc2cn3c(c2c(=O)[nH]1)CCCCC3
> 100 µM
COc1ccc2[nH]c3cc4c(=O)c5cc(OC)ccc5[nH]c4cc3c(=O)c2c1
> 100 µM
O=S(=O)(C1=CC(S(=O)(=O)c2ccccc2)COC1)c1ccccc1 (centres undefined)
> 100 µM
CCN(CC)CC1CCCCN1CC(=O)N1c2cc(Cl)ccc2NC(=O)CC1C (centres undefined)
> 100 µM
Cc1nnc(C[C@@H]2C=C(c3ccc(Cl)cc3)c3ccccc3-n3c(C)nnc32)o1
68.7 µM
O=c1cc(-c2ccc(Cl)cc2)[nH]c2ccccc12
> 100 µM
CC(C)OP(=O)(OC(C)C)C(=NCCO)NNc1ccc([N+](=O)[O-])cc1
> 100 µM
Clc1ccc(-c2cc(-c3ccccc3)nc(N3CCN(CCCNc4ccnc5cc(Cl)ccc45)CC3)n2)cc1
3.06 µM
CN(C)c1ccc(/C=C/C(=O)c2cc(C(C)(C)C)c(O)c(C(C)(C)C)c2)cc1
> 100 µM
C/C=C1\CC(C(=O)OCC)CCCCCCC1=O (centres undefined)
> 100 µM
COC(=O)[C@H](CNC(=O)/C=C/c1ccc(OC(C)=O)c(OC(C)=O)c1)NC(=O)/C=C/c1ccc(OC(C)=O)c(OC(C)=O)c1
> 100 µM
CCCNC1=C2C[C@@H](C)C[C@@H](OC)[C@@H](OC(=O)CCCN)[C@H](C)/C=C(\C)[C@@H](OC(N)=O)[C@H](OC)/C=C\C=C(/C)C(=O)NC(=CC1=O)C2=O
> 43.8 µM
COc1ccc(/C=C2/N=C(N/N=C\C(O)C(O)C(O)CO)NC2=O)cc1 (centres undefined)
> 100 µM
Cc1cc(F)c(C(=O)Nc2cccc(-c3nncn3C(C)C)n2)cc1-n1cnc(C2CC2)c1
> 100 µM
CCOC(=O)Oc1cc2ccsc2c2c1c1ccccc1n2C(=O)OCC
> 100 µM
COc1ccc(-c2nn(-c3cccc(Cl)c3)cc2/C=C2\NC(=S)N(c3ccc(Cl)cc3)C2=O)cc1
> 25 µM
CN1CCN(CCCOc2cccc3nc(Nc4cc(Cl)cc(Cl)c4)ccc23)CC1
3.68 µM
Cc1cc(=O)oc2c(C3=NN(C=O)C(c4ccccc4)C3)c(O)ccc12 (centres undefined)
> 100 µM
Cc1cccc2c(N)c3cccc(C(=O)NCC[N+](C)(C)Cc4ccc([N+](=O)[O-])n4C)c3nc12
> 82.2 µM
COc1cc(/C=C/C(=O)c2cccc3ccccc23)cc(OC)c1OC
7.32 µM
CC(=O)O[C@@H]1[C@H](OC2CCCCC2(c2ccccc2)c2ccccc2)O[N+]([O-])=CC12CCCCC2 (some centres undefined)
31.6 µM
COc1ccccc1-n1cnc(N)c1C(=O)c1cc(OC)c(OC)c(OC)c1
> 100 µM
CCO/C(O)=C(/C(=N)N1CCOCC1)C(=O)Nc1cccc(C(F)(F)F)c1
> 100 µM
COc1ccccc1-n1cnc2c1NC(C)(C)N=C2C(N)=O
> 100 µM
CCC(=O)OC1CCn2c1nc1c2C(=O)C(C)=C(NC(C)=O)C1=O (centres undefined)
2.93 µM
COC(=O)C(C(=O)C(=O)Nc1ccc(C)cc1)c1nc2ccc([N+](=O)[O-])cc2[nH]c1=O (centres undefined)
> 100 µM
CC(=O)NNc1nc(C)c(C(=O)NNC(=O)C(=O)Nc2ccc(Cl)c([N+](=O)[O-])c2)s1
> 100 µM
COC(CNC(=O)CNC(=O)c1ccc(C(F)(F)F)cc1)OC
> 100 µM
C[C@@H]1C[C@H]2OC(=O)[C@@]3(C)CCC[C@@](C)([C@@H]23)[C@@]1(O)CCc1ccoc1
> 100 µM
CCOC(=O)/C(Br)=C1\OC(=O)c2ccccc2-c2ccccc21
> 100 µM
COc1ccc2[nH]c(Cl)c(/C=C3/C(=O)Nc4ccccc43)c2c1
7.58 µM
Cc1ccc(C2(O)c3ccccc3C(=O)N(C)C2(O)c2ccc(C)cc2)cc1 (centres undefined)
> 100 µM
N=c1c2sc3nc4ccccc4n3c2ncn1Cc1ccccc1
> 100 µM
NC(CCSCC(F)(F)F)C(=O)O (centres undefined)
> 100 µM

The measured values listed here are drawn from PubChem BioAssay (NCI).
